# Protocol Summary: mouse pharmacokinetics of Indi-199 by IV, IP and PO
# Type: in vivo
# Setup Conditions: in vivo; mouse, 20 mg/kg IV bolus, 4 mg/mL in PBS
Where a SMILES comes first, the peptide text is derived from it. Bridges are numbered along the chain shown (N, C = ends). Triazole bridges read from a SMILES are 1,4-linked. [ ]: non-standard residue; d: D form. The star is where a group is joined. dPhe(4-Cl) = N[C@H](Cc1ccc(Cl)cc1)C(=O)O; Lys(N3) = [N-]=[N+]=NCCCC[C@H](N)C(=O)O; Morpholinoacetyl = O=C(CN1CCOCC1)*; Palmitoyl = CCCCCCCCCCCCCCCC(=O)*; Pra = C#CC[C@H](N)C(=O)O
Measurement Kind: clearance (mL/min/kg)
Field format: number, assumed mL/min/kg, no unit text.

Request: Given the compound CCCCCCCCCCCCCCCC(=O)NCCCC[C@H](NC(=O)[C@@H]1CCCCn2cc(nn2)C[C@H](NC(=O)CN2CCOCC2)C(=O)N[C@H](Cc2c[nH]c3ccccc23)C(=O)N[C@H](CCCCN)C(=O)N[C@H](Cc2ccc(O)cc2)C(=O)N[C@H](Cc2ccc(Cl)cc2)C(=O)N1)C(N)=O [Indi-199] (Morpholinoacetyl-[Pra][dW][dK][dY][dPhe(4-Cl)][Lys(N3)]K(Palmitoyl)-NH2; triazole 1-6) , write its reported clearance.
Result: 0.587

----------
# Protocol Summary: mouse pharmacokinetics of Indi-199 by IV, IP and PO
# Type: in vivo
# Setup Conditions: in vivo; mouse, 20 mg/kg IV bolus, 4 mg/mL in PBS; read-out: T½ (converted)
Where a SMILES comes first, the peptide text is derived from it. Bridges are numbered along the chain shown (N, C = ends). Triazole bridges read from a SMILES are 1,4-linked. [ ]: non-standard residue; d: D form. The star is where a group is joined. dPhe(4-Cl) = N[C@H](Cc1ccc(Cl)cc1)C(=O)O; Lys(N3) = [N-]=[N+]=NCCCC[C@H](N)C(=O)O; Morpholinoacetyl = O=C(CN1CCOCC1)*; Palmitoyl = CCCCCCCCCCCCCCCC(=O)*; Pra = C#CC[C@H](N)C(=O)O
Measurement Kind: half-life (h)
State just the number; it will be interpreted in h.

Request: Indicate the recorded half-life value for this compound: CCCCCCCCCCCCCCCC(=O)NCCCC[C@H](NC(=O)[C@@H]1CCCCn2cc(nn2)C[C@H](NC(=O)CN2CCOCC2)C(=O)N[C@H](Cc2c[nH]c3ccccc23)C(=O)N[C@H](CCCCN)C(=O)N[C@H](Cc2ccc(O)cc2)C(=O)N[C@H](Cc2ccc(Cl)cc2)C(=O)N1)C(N)=O [Indi-199] (Morpholinoacetyl-[Pra][dW][dK][dY][dPhe(4-Cl)][Lys(N3)]K(Palmitoyl)-NH2; triazole 1-6)
Result: 2.72

----------
# Protocol Summary: mouse pharmacokinetics of Indi-199 by IV, IP and PO
# Assay type: in vivo
# Setup Conditions: in vivo; mouse, 20 mg/kg IV bolus, 4 mg/mL in PBS
Where a SMILES comes first, the peptide text is derived from it. Bridges are numbered along the chain shown (N, C = ends). Triazole bridges read from a SMILES are 1,4-linked. [ ]: non-standard residue; d: D form. The star is where a group is joined. dPhe(4-Cl) = N[C@H](Cc1ccc(Cl)cc1)C(=O)O; Lys(N3) = [N-]=[N+]=NCCCC[C@H](N)C(=O)O; Morpholinoacetyl = O=C(CN1CCOCC1)*; Palmitoyl = CCCCCCCCCCCCCCCC(=O)*; Pra = C#CC[C@H](N)C(=O)O
Measurement Kind: AUC(0-inf) (µM·h)
Your answer should be a plain number; it is taken to be in µM·h.

Request: Please report the measured AUC(0-inf) for CCCCCCCCCCCCCCCC(=O)NCCCC[C@H](NC(=O)[C@@H]1CCCCn2cc(nn2)C[C@H](NC(=O)CN2CCOCC2)C(=O)N[C@H](Cc2c[nH]c3ccccc23)C(=O)N[C@H](CCCCN)C(=O)N[C@H](Cc2ccc(O)cc2)C(=O)N[C@H](Cc2ccc(Cl)cc2)C(=O)N1)C(N)=O [Indi-199] (Morpholinoacetyl-[Pra][dW][dK][dY][dPhe(4-Cl)][Lys(N3)]K(Palmitoyl)-NH2; triazole 1-6)
Result: 403
